Listing: apparent KD of MS2 coat protein of selected sequences
System: MS2 coat protein
assay procedure: apparent KD of MS2 coat protein; designed switch direction (-1 OFF switch, 1 ON switch): -1; higher = weaker reporter binding
measurement parameters: input ligand: microRNA oligo, concentration not stated

{"query sequence": "ACAUGAUCAGGAUAUACAUGAGGAUCACCCAUGUAAAUCAAAAAAAAACUUUCUUUAUGUAGAAGGGAUCUUGU [EX3 270: Random 6] (Eterna round: R96, puzzle: Exclusion 3)", "tested target": "MS2 coat protein", "units of measure": "nM", "apparent KD of MS2 coat protein": 13.6}
{"query sequence": "ACAUGAGGAUCACCCAUGUCCGGCUGGUCCGUCUCGGCUGUCGAGGAUAUAGCUUGGUGUCCGCGCUAGAAGGUGGGAGCCGGU [Aenatbe mod 70] (Eterna round: R96, puzzle: Exclusion NG 3)", "tested target": "MS2 coat protein", "units of measure": "nM", "apparent KD of MS2 coat protein": 40.2}
{"query sequence": "UCACGGGACUGAGGAUAUACAUGAAUUAUUUUUGUAGAAGGCAGAAUGUUAGAUUAUUCACUAUACAUGAGGAUCACCCAUGUU [JR_ExcNG1_Sub022] (Eterna round: R96, puzzle: Exclusion NG 1)", "tested target": "MS2 coat protein", "units of measure": "nM", "apparent KD of MS2 coat protein": 18.8}

----------
Test system: MS2 coat protein
assay procedure: apparent KD of MS2 coat protein; higher = weaker reporter binding
measurement parameters: Eterna round: R107; input ligand: tryptophan 2.4 mM
Give 1.0 when the value for apparent KD of MS2 coat protein is at least 20 nM. Give 0.0 when it is less.

{"query sequence": "UGUAAAAUAACAGAUACCAGCGUGUUAUAAAACAUGAGGAUCACCCAUGUAGUGAUCAAGCGCCCUUGGCAGCUGGUAUUUUAUG [7.D]", "category": 1.0}
{"query sequence": "CAUUGUUAGACGGCCGCCACUUUUGGUUCGGAACGAUCGAUUGGACAUGAGGAUCACCCAUGUGGAAGGACCGGGUCUAAUCAAA [theeternabot_sameState_MS2_Trp_B_20]", "category": 1.0}
{"query sequence": "GCCAUCGGCGGAAGCCGAUGGUAUACAGAAGGAGCGUAGGAAACUACAGGUAGGUCGCUGGACAUGAGGAUCACCCAUGUAAUAG [#27 Same State - Arginine A]", "category": 1.0}
{"query sequence": "UUAUUUAUAAUGGAUACCAGUUUAAUGGCCGCAAAUCCUGACAUGAGGAUCACCCAUGUAAGCCCUUGGCAGCUGUUAUGGGUUU [XTheo B #24]", "category": 1.0}
{"query sequence": "GGGCCCGGGCCCGCGCGGGCCCGGGCCCAACGAGGACCGGUACGGCCGCCACUCGAACGAGUGGGUACAUGAGGAUCACCCAUGU [Baa]", "category": 1.0}
{"query sequence": "UCUUACUAUAGUGAUACCAGACGUACAUGAGGAUCACCCAUGUUACAUUCUUGGUUAAAAGUCCCUUGGCAGCACGAUUUGUUCG [JR_Nu_ExcTheophyB_Sub026]", "category": 0.0}
{"query sequence": "GAUGAUAUUGCAGAUACCAGACACAUGAGGAUCACCCAUGUCGCUGGGUCGCUGGGUCGUGUCCCUUGGCAGCUGCGAUAUCAUC [Tibet]", "category": 1.0}
{"query sequence": "GGUGACUGCAUGUGGAAUUAAGGUAGGGAAGGAGCGCGGUAAGACGCAGGUAGGUCGCCCUACAUGAGGAUCACCCAUGUGGUGU [Beenmaer]", "category": 1.0}
{"query sequence": "ACAUGAACAUGAGGAUCACCCAUGUGGGAUACCAGCGUGUAUGAGCGCCCUUGGCAGCUCAUGACAUGAGGAUCACCCAUGUUGG [Exclusion Theophylline A 4]", "category": 1.0}
{"query sequence": "UCGUUUGAGGCGGCCGCCACUGGUCUCAUGGUCAACAUGAGGAUCACCCAUGUAUCUUUGCCAAGCAGGACCGGGCCUCGAGCGA [#20 Exclusion Tryptophan B]", "category": 0.0}
{"query sequence": "UUAAUCUAUAAUGAAAACAUUAUAGCAGAAGGAGCGUGAUAAAACACAGGUAGGUCGCUGAAGGGAACAUGAGGAUCACCCAUGU [AstrosSSArgA#12]", "category": 1.0}
{"query sequence": "CGCAACCAACAUGAGGAUCACCCAUGUGAAGGAGCGCCGAAUAAGGCAGGUAGGUCGCACAUGAAUAAAUCAUGAAGGAAGCGAA [XArg-A 12 NuPack]", "category": 1.0}
{"query sequence": "UCGUAGCUAGGAAGGAGCGCAUACUUCACAUGAGGAUCACCCAUGUCGAGACGUGAGUCAGUGCAGGUAGGUCGCCUAGCUAUGA [Same State - Arginine B (Freestyle 26)]", "category": 0.0}
{"query sequence": "CUUACGGGAAACCGACCCAAACAACGGGAAGGAGCGCCAAACAAGGCAGGUAGGUCGCCCACAUGAGGAUCACCCAUGUGUUGGG [Exclusion Arginine A GF 26]", "category": 1.0}
{"query sequence": "UUAAUCUUGGAUGAAAACAUUUAAGCAGAAGGAGCGUGAUAAAACACAGGUAGGUCGCUGAAGGGAACAUGAGGAUCACCCAUGU [AstrosSSArgA#15]", "category": 1.0}
{"query sequence": "UGUAUGUGAUCUGAUACCAGUCCAACUGGUAAAGCAUGAGGAUCACCCAUGCAAAAUUGGGACCCUUGGCAGCAGAUCGCAUACU", "category": 1.0}
{"query sequence": "ACUUUGUCGGGUGAUACCAGCCUCGGCACAUCUCGUGCCGAACAUGAGGAUCACCCAUGUGGCCCUUGGCAGCACAUGACAAAUC [Isredior]", "category": 1.0}
{"query sequence": "ACAUGAGGAUCACCCAUGUGGCGAGUUGAUACCAGACCCGCACUAGUCCCUUGGCAGCAACUACGUGUGGGACACCCAUGUUAAG [qpqmullin]", "category": 1.0}
{"query sequence": "CGGUUUGUGAUGGAUACCAGCAGAGAGAAUGUUUAUCCUGACAUGAGGAUCACCCAUGUGUGCCCUUGGCAGCUGUUGUGGGCUG [8.Y]", "category": 1.0}
{"query sequence": "AUUAAUAGUUGUGAUACCAGACGAACAUGAGGAUCACCCAUGUAACUUAAGAGUGUUGAUGUCCCUUGGCAGCACUGUUUAGUUA [JR_SSTheophyB_Sub015]", "category": 1.0}
{"query sequence": "GCAUCCUAGUCGGCCGCCACUGCGAAUAGGUCCUGAGUGAUCUAACAUGAGGAUCACCCAUGUAGCAGGACCGGGACUAGGAUGC [(Trp1)-(TM)''-(TM)'-(Ms2)-(Trp2)_Design5]", "category": 0.0}
{"query sequence": "UUUGAUAUGACAGAUACCAGCGUGUUGUUGAACAUGAGGAUCACCCAUGUAGUGAUCAAGCGCCCUUGGCAGCUGGUGUGUUAGG [7.P]", "category": 1.0}
{"query sequence": "UGUAUGGACUGAAGGAGCGGGUUGAUACCAUGAGGAUCACCCAUGGAAAAGGCGAAAGCCGCCCAGGUAGGUCGCAGUCCAUACU", "category": 0.0}

----------
Overview of recorded apparent KD of MS2 coat protein for various sequences
System: MS2 coat protein
assay procedure: apparent KD of MS2 coat protein; designed switch direction (-1 OFF switch, 1 ON switch): -1; higher = weaker reporter binding
measurement parameters: Eterna round: R95; input ligand: microRNA oligo, concentration not stated

{"query sequence": "CAUGAGGUAGGAUAUACGAUAAUAUAGGGUAGAUAUAUAACACAUGAGGAUCACCCAUGUAGAAGGACCAGUAG [Mat - Exclusion 2 - Mod of my Tesla design - D67] (puzzle: Exclusion 2)", "units of measure": "nM", "apparent KD of MS2 coat protein": 29.8}
{"query sequence": "ACAAGCUUUUUGUUCGUCUUAUACACUCCUAAUAAGACAACAUGAGGAUCACCCAUGUAACAAACAAGAACUCAUGU [Sesor Array 6 - Jieux - Sensor v3, turn-off variant 2] (puzzle: Sensor v3, turn-off variant 2)", "units of measure": "nM", "apparent KD of MS2 coat protein": 359}
{"query sequence": "UUUUAACAUGAGGAUCACCCAUGUGAGGAUAUCGAAAUUUAUAUUAAUAUUAAUUAUACGAGAAGGCACAUUUU [JMF 30] (puzzle: Exclusion 1)", "units of measure": "nM", "apparent KD of MS2 coat protein": 84}
{"query sequence": "GUGGCACAUGAGGAUCACCCAUGUCAGGAUAUCGCGUGUUUUUUUUCGGCCGCGCGCGCGAGAAGGGACGUCUU (puzzle: Exclusion 1)", "units of measure": "nM", "apparent KD of MS2 coat protein": 22.8}
{"query sequence": "GCCGAUUAAGUCAGGAUAUACCUAUGGAUACAUAGGUAGAAGGGACAUGAGGAUCACCCAUGUGCCUCAACGGC [Fiskers BMX 4 - 18] (puzzle: Brourd's mod of Exclusion 4)", "units of measure": "nM", "apparent KD of MS2 coat protein": 18.9}
{"query sequence": "GUAAAGUGAGGAUAUGGUAAUUUAAUUAUUAAUUAAUUAAUCCAGAAGGCACAUGAGGAUCACCCAUGUAAAGG [Mat - Exclusion 4 - D93] (puzzle: Exclusion 4)", "units of measure": "nM", "apparent KD of MS2 coat protein": 34.6}
{"query sequence": "CUCAUGUGAGGAUAUGUGAUCAACCUUCUAUAUAGAUGAUUACAGAAGGCACAUGAGGAUCACCCAUGUAGAUC [Ex4 - 3 - 23] (puzzle: Exclusion 4)", "units of measure": "nM", "apparent KD of MS2 coat protein": 21.1}
{"query sequence": "AGGGAUAAAGGAUAUACAUGAGGAUCACCCAUGUUGAGGAAGGUUAGAUGAGGAGUAAGUAGAAGGUUAGACGA [JR_Exclu3_Sub088] (puzzle: Exclusion 3)", "units of measure": "nM", "apparent KD of MS2 coat protein": 40.7}
{"query sequence": "AAUAAGCUAGGAUAUACAUGAGGAUCACCCAUGUGAGGGCACCGCCGGCGCGGGCCCGGUAGAAGGAGCAAUAA [Exc;s3-IV] (puzzle: Exclusion 3)", "units of measure": "nM", "apparent KD of MS2 coat protein": 16.1}
{"query sequence": "CAUACUCAAGUGAGGAUAUUGUCUCGGAUACGAAACAAGAAGGCACAUGAGGAUCACCCAUGUAGAGAGUAAAG [EX-4 Malc #30] (puzzle: Brourd's mod of Exclusion 4)", "units of measure": "nM", "apparent KD of MS2 coat protein": 25.1}
{"query sequence": "CGGAUGUGAGGAUAUACAUGAGGAUCACCCAUGUGAGCCAGCUAGCUGACUGGCUCGUGUAGAAGGCACGUCUG [JL-ex3-2.16 Brourd mod] (puzzle: Exclusion 3)", "units of measure": "nM", "apparent KD of MS2 coat protein": 14.2}
{"query sequence": "GGGUGUGAAGGAUAUACAUGAGGAUCACCCAUGUGAGAGGAGGAGGUUGAGGAGGUUGGUAGAAGGUCAGGAGG [JR_Exclusion3_Sub011] (puzzle: Exclusion 3)", "units of measure": "nM", "apparent KD of MS2 coat protein": 120}
{"query sequence": "AGUACUAACACGGGUGUGUUAGUACAAUAAGCUUGUGAAACAUGAGGAUCACCCAUGUCCUCAUAAGCUCGUCUUAU [salish99_TOv2_r3_075] (puzzle: Sensor v3, turn-off variant 2)", "units of measure": "nM", "apparent KD of MS2 coat protein": 926}
{"query sequence": "AAUAAGCGAGGAUAUGCGGGCGGGUGCGGCCAGCCGAUGUGACAUGAGGAUCACCCAUGUAGAAGGCGCAAUAA [Excls2-VI] (puzzle: Exclusion 2)", "units of measure": "nM", "apparent KD of MS2 coat protein": 11.4}
{"query sequence": "UUAUAUAGUGUGAGGAUAUGCUGGUCCUUGGAUCAGCAGAAGGCACAUGAGGAUCACCCAUGUAGUUAAUAAUA [Mat - Exclusion 4 - JL Mod - D16] (puzzle: Brourd's mod of Exclusion 4)", "units of measure": "nM", "apparent KD of MS2 coat protein": 30}
{"query sequence": "GGUGCGUCUGUGAGGAUAUGCUGGUCCUUGGAUCAGCAGAAGGCACAUGAGGAUCACCCAUGUGGUGUCGUACC [salish99_Bmod_Ex4_028] (puzzle: Brourd's mod of Exclusion 4)", "units of measure": "nM", "apparent KD of MS2 coat protein": 143}
{"query sequence": "GAGAAUUUAUAGGAUAUCGUAUGCAUAAUUUAACGAGAAGGAUGAACAUGAGGAUCACCCAUGUGGUAUCAUGG [salish99_ex6_r3_001] (puzzle: Exclusion 6)", "units of measure": "nM", "apparent KD of MS2 coat protein": 192}
{"query sequence": "UUGGAUGUUGAGGAUAUGCUGGUGUUUAUUAUAGCAGAAGGCGAUACAUGAGGAUCACCCAUGUUCAUGGCUUU [JR_E6_Sub100] (puzzle: Exclusion 6)", "units of measure": "nM", "apparent KD of MS2 coat protein": 12.4}
{"query sequence": "CUGGUCCGAGGAUAUAUUAUGUGAUACAUGAGGAUCACCCAUGUUAUAUGAUGGAUGUUAAUAGAAGGCGGACUAG [JL-ex5-3.20] (puzzle: Exclusion 5)", "units of measure": "nM", "apparent KD of MS2 coat protein": 109}
{"query sequence": "UUUUUGUGAGGAUAUGCAAUAUCUUCUAUUUAUUAUUAAUUGCAGAAGGCACAUGAGGAUCACCCAUGUAUUUU [Ex4 - 3 - 36] (puzzle: Exclusion 4)", "units of measure": "nM", "apparent KD of MS2 coat protein": 20.5}
{"query sequence": "UUUAAUUUUUUUUUUUUACAAGCUUUUUGCUCGUCUUAUACAUGAGGAUCACCCAUGUGAGUGGGAGAUAAAUUAUC [JMF 22] (puzzle: Sensor v3, turn-off variant 2)", "units of measure": "nM", "apparent KD of MS2 coat protein": 213}
